Experiment: qHTS of pediatric cancer cell lines to identify multiple opportunities for drug repurposing: Confirmatory screen for RD cells (AID 1347124);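 further: cells exposed to compound for 48 h before viability readout; nearly all actives have a fitted effect of over 65% in size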
Details: RD rhabdomyosarcoma cell viability; series mostly up to 45.9 µM
Records with an inconclusive call do not appear. Activity calls are given as the source filed them. The call rests on the fitted dose curve; in most records, active means well fitted cell-killing curve with a large enough effect; inconclusive means small, poorly fitted or top-dose-only effect, or effect the other way; inactive means no such curve, though single readings can be large or run the other way.
Outcomes you can answer with include only these: active, inactive

molecule=C=C(c1ccc(C(=O)O)cc1)c1cc2c(cc1C)C(C)(C)CCC2(C)C category_label=inactive
molecule=Cc1ccc(Nc2nccc(N(C)c3ccc4c(C)n(C)nc4c3)n2)cc1S(N)(=O)=O category_label=inactive
molecule=C[C@]12CCC(=O)C=C1CC[C@@H]1[C@H]2[C@@H](O)C[C@@]2(C)[C@H]1CC[C@]2(O)C(=O)CO category_label=inactive
molecule=CCCCc1ccc2nc(NC(=O)OC)[nH]c2c1 category_label=active

Qu. Each molecule tested received a call. Report the one for CCc1nc(N)nc(N)c1-c1ccc(Cl)cc1 .
Ans. active

Qu. Each molecule tested received a call. Report the one for Nc1ccn([C@@H]2O[C@H](CO)[C@@H](O)C2O)c(=O)n1 (some centres not stated) .
Ans. inactive

Qu. Each molecule tested received a call. Report the one for Cc1nc(Nc2ncc(C(=O)Nc3c(C)cccc3Cl)s2)cc(N2CCN(CCO)CC2)n1 .
Ans. inactive
